# Measurement target: human NPY Y5 receptor (Homo sapiens)
# Sequence (Q15761 1-445): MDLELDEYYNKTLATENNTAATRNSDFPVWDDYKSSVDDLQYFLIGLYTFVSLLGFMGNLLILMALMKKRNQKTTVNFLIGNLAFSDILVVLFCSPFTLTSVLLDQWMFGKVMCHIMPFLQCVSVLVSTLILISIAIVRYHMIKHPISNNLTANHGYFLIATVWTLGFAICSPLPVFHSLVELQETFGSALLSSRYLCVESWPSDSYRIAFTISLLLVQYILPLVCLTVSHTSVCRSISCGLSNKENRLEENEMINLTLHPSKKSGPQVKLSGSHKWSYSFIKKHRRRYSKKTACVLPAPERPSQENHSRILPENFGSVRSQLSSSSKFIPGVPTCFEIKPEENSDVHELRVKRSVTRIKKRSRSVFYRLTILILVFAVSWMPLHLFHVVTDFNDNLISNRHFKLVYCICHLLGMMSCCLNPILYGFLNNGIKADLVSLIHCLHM
# Test details: FLIPR/Ca2+ functional activity at recombinant human NPY Y5 receptor
# Condition parameters: HEK 293 signal-hNPY Y5/G16z49 cells; inhibition of calcium release by PYY at EC80; Cheng-Prusoff; read-out: fpKi
Structures can show the parent of a compound that is named as a salt.
Quantity kind: Ki

> print(dat)
                                   compound  quantity.kind  endpoint.result
1  O=C1O[C@]2(CC[C@H](CNc3ccc(-c4ccccc4F)nn3)CC2)CN1c1cccnc1F [Example 4-7, Hydrochloride]             Ki       ≤ 0.316 nM
2  O=C1O[C@]2(CC[C@H](CNc3ccc(Oc4ccccc4OC(F)(F)F)nn3)CC2)CN1c1cccnn1 [Example 4-56]             Ki         ≤ 0.1 nM
3  O=C1O[C@]2(CC[C@H](CNc3ccc(-c4ccccc4)nn3)CC2)CN1c1cccnn1 [Example 4-38, Dihydrochloride]             Ki           ≤ 1 nM

Form field, Ki with human NPY Y5 receptor (Homo sapiens), item Cc1cc(N2C[C@]3(CC[C@@H](CNc4ccc(-c5ccccc5C)nn4)CC3)OC2=O)ccn1 [Example 4-39, Dihydrochloride] : ≤ 0.1 nM

Form field, Ki with human NPY Y5 receptor (Homo sapiens), item O=C1O[C@]2(CC[C@H](CNc3ccc(-c4cccc(C(F)(F)F)c4)nn3)CC2)CN1c1cccnn1 [Example 4-40, Hydrochloride] : ≤ 0.1 nM

Form field, Ki with human NPY Y5 receptor (Homo sapiens), item O=C1O[C@]2(CC[C@H](CNc3ccc(-c4cc(F)cc(F)c4)nn3)CC2)CN1c1cccnn1 [Example 4-3, Dihydrochloride] : ≤ 0.1 nM

Just for reference, patent US20090203705A1 is where these values come from.
